The reported measurements were obtained from ChEMBL document CHEMBL6153120.

# Experimental protocol: Clearance in mouse
# Assay type: ADME, organism-based
# Applied conditions: in vivo
Property label: clearance (mL/min/kg)
Quick note: give the figure in mL/min/kg, leave out the unit.

Form field: reported clearance of C=CC(=O)N1CC2(CCN(c3nc4c(c(-c5c(C)ccc6[nH]ncc56)c3C#N)COC(C)(C)C4)C2)C1
90

----------
# System name: GTPase KRas (Homo sapiens, UniProt P01116, C118A/G12C)
# Experimental protocol: Inhibition of recombinant His-tagged GDP-bound human KRAS G12C/C118A mutant (1 to 169 residues) (unknown origin) extracted by Escherichia coli assessed as SOS1-catalyzed GDP-GTP exchange preincubated for 2 hrs followed by SOS1 and GTP addition for 30 mins and measured after 45 mins of GST-tagged c-RAF addition by luminescence based Alphascreen assay
Property label: IC50 (µM)
Quick note: give the figure in µM, leave out the unit.

Form field: reported IC50 of C=CC(=O)N1CC2(CCN(c3nc(N[C@H](CC(=O)NC)CC(C)C)nc(-c4cccc(OC)c4Cl)n3)CC2)C1
1.75

Others:
Form field: reported IC50 of C=CC(=O)N1CC2(CCN(c3nc4c(c(-c5cc(O)cc6ccccc56)n3)CCCC4)C2)C1
0.69

Form field: reported IC50 of C=CC(=O)N1CC2(CCN(c3nc4c(c(-c5cc(O)cc6ccccc56)c3C#N)C[C@H]3C[C@@H]4C3(C)C)C2)C1
0.019

Form field: reported IC50 of C=CC(=O)N1CC2(CCN(c3nc4c(c(-c5cc(O)cc6ccccc56)c3F)COC(C)(C)C4)C2)C1
0.062

Form field: reported IC50 of C=CC(=O)N1CC2(CCN(c3nc4c(c(-c5c(C)ccc6[nH]ncc56)n3)CCC(C)(C)C4)C2)C1
0.84

Form field: reported IC50 of C=CC(=O)N1CC2(CCN(c3nc4c(c(-c5c(C)ccc6[nH]ncc56)c3C#N)C[C@H]3C[C@@H]4C3(C)C)C2)C1
0.019

Form field: reported IC50 of C=CC(=O)N1CC2(CCN(c3nc4c(c(-c5cccc6sc(N)nc56)n3)CCCC4)C2)C1
0.89

Form field: reported IC50 of C=CC(=O)N1CC2(CCN(c3nc(N[C@H](CC(=O)NC)CC(C)C)nc(-c4cccc(OC)c4F)n3)C2)C1
0.61

----------
# Experimental protocol: Oral bioavailability in mouse
# Format: ADME, organism-based
# Applied conditions: in vivo
Property label: bioavailability (%)
Quick note: give the figure in %, leave out the unit.

Example cases with answers are listed next.
Form field: reported bioavailability of C=CC(=O)N1CC2(CCN(c3nc4c(c(-c5cc(O)cc6ccccc56)c3C)COC(C)(C)C4)C2)C1
44

Form field: reported bioavailability of C=CC(=O)N1CC2(CCN(c3nc4c(c(-c5cc(O)cc6ccccc56)c3C#N)COC(C)(C)C4)C2)C1
34

Form field: reported bioavailability of C=CC(=O)N1CC2(CCN(c3nc4c(c(-c5cc(O)cc6ccccc56)c3Cl)COC(C)(C)C4)C2)C1
50

Next, consider the following compound.
Form field: reported bioavailability of C=CC(=O)N1CC2(CCN(c3nc4c(c(-c5cc(O)cc6ccccc56)c3C#N)C[C@H]3C[C@@H]4C3(C)C)C2)C1
4

----------
# Experimental protocol: Unbound AUC in mouse at 100 mg/kg, po
# Format: ADME, organism-based
# Applied conditions: in vivo
// fAUC lookup, one value per entry
Answer format: number, then unit.

Form field: reported fAUC of C=CC(=O)N1CC2(CCN(c3nc4c(c(-c5cc(O)cc6ccccc56)c3F)COC(C)(C)C4)C2)C1
360 nM·h

Others:
Form field: reported fAUC of C=CC(=O)N1CC2(CCN(c3nc4c(c(-c5cc(O)cc6ccccc56)c3F)C[C@H]3C[C@@H]4C3(C)C)C2)C1
1010 nM·h

Form field: reported fAUC of C=CC(=O)N1CC2(CCN(c3nc4c(c(-c5cc(O)cc6ccccc56)c3Cl)COC(C)(C)C4)C2)C1
150 nM·h

Form field: reported fAUC of C=CC(=O)N1CC2(CCN(c3nc4c(c(-c5cc(O)cc6ccccc56)c3C)COC(C)(C)C4)C2)C1
137 nM·h

----------
# System name: GTPase KRas (Homo sapiens, UniProt P01116, C118A/G12C)
# Experimental protocol: Inhibition of recombinant His-tagged GDP-bound human KRAS G12C/C118A mutant (1 to 169 residues) (unknown origin) extracted by Escherichia coli assessed as SOS1-catalyzed GDP-GTP exchange preincubated for 2 hrs followed by SOS1 and GTP addition for 30 mins and measured after 45 mins of GST-tagged c-RAF addition by luminescence based Alphascreen assay
// pIC50 lookup, one value per entry
Keep in mind that pIC50 stands for -log10 of concentration in molar terms.

I'm curious: which pIC50 was measured for C=CC(=O)N1CC2(CCN(c3nc(N[C@H](CC(=O)NC)CC(C)C)nc(-c4cccc(OC)c4OC)n3)C(C)C2)C1 (stereo not given in full) tested on GTPase KRas (Homo sapiens, UniProt P01116, C118A/G12C)?
5.49

Others:
I'm curious: which pIC50 was measured for C=CC(=O)N1CC2(CCN(c3nc4c(c(-c5cc(O)cc6ccccc56)c3C#N)COC(C)(C)C4)C2)C1 tested on GTPase KRas (Homo sapiens, UniProt P01116, C118A/G12C)?
7.66

----------
# Experimental protocol: Oral bioavailability in mouse
# Type: ADME, organism-based
# Applied conditions: in vivo
Property label: bioavailability
Answer format: number, then unit.

Form field: reported bioavailability of C=CC(=O)N1CC2(CCN(c3nc4c(c(-c5c(C)ccc6[nH]ncc56)c3C#N)COC(C)(C)C4)C2)C1
3%

Form field: reported bioavailability of C=CC(=O)N1CC2(CCN(c3nc4c(c(-c5cc(O)cc6ccccc56)c3F)C[C@H]3C[C@@H]4C3(C)C)C2)C1
14%

Form field: reported bioavailability of C=CC(=O)N1CC2(CCN(c3nc4c(c(-c5cc(O)cc6ccccc56)c3F)COC(C)(C)C4)C2)C1
27%

----------
// log10 of fAUC lookup, one value per entry
# Experimental protocol: Unbound AUC in mouse at 5 mg/kg, po
# Format: ADME, organism-based
# Applied conditions: in vivo
Friendly reminder: values = log10 of fAUC, unit µM·h.

Example cases with answers are listed next.
Form field: reported log10 of fAUC of C=CC(=O)N1CC2(CCN(c3nc4c(c(-c5c(C)ccc6[nH]ncc56)c3C#N)COC(C)(C)C4)C2)C1
-2.52

Form field: reported log10 of fAUC of C=CC(=O)N1CC2(CCN(c3nc4c(c(-c5cc(O)cc6ccccc56)c3Cl)COC(C)(C)C4)C2)C1
-1.38

Form field: reported log10 of fAUC of C=CC(=O)N1CC2(CCN(c3nc4c(c(-c5cc(O)cc6ccccc56)c3C#N)C[C@H]3C[C@@H]4C3(C)C)C2)C1
-3.00

Form field: reported log10 of fAUC of C=CC(=O)N1CC2(CCN(c3nc4c(c(-c5cc(O)cc6ccccc56)c3F)COC(C)(C)C4)C2)C1
-1.57

Form field: reported log10 of fAUC of C=CC(=O)N1CC2(CCN(c3nc4c(c(-c5cc(O)cc6ccccc56)c3C)COC(C)(C)C4)C2)C1
-1.74

Form field: reported log10 of fAUC of C=CC(=O)N1CC2(CCN(c3nc4c(c(-c5cc(O)cc6ccccc56)c3F)C[C@H]3C[C@@H]4C3(C)C)C2)C1
-1.68

Next, consider the following compound.
Form field: reported log10 of fAUC of C=CC(=O)N1CC2(CCN(c3nc4c(c(-c5cc(O)cc6ccccc56)c3C#N)COC(C)(C)C4)C2)C1
-1.89

----------
# System name: GTPase KRas (Homo sapiens, UniProt P01116, C118A/G12C)
# Experimental protocol: Inhibition of recombinant His-tagged GDP-bound human KRAS G12C/C118A mutant (1 to 169 residues) (unknown origin) extracted by Escherichia coli assessed as SOS1-catalyzed GDP-GTP exchange preincubated for 2 hrs followed by SOS1 and GTP addition for 30 mins and measured after 45 mins of GST-tagged c-RAF addition by luminescence based Alphascreen assay
// pIC50 lookup, one value per entry
Keep in mind that pIC50 stands for -log10 of concentration in molar terms.

Example cases with answers are listed next.
Form field: reported pIC50 of C=CC(=O)N1CC2(CCN(c3nc(N[C@H](CC(=O)NC)CC(C)C)nc(-c4cc(F)ccc4OC)n3)CC2(F)F)C1
6.52

Form field: reported pIC50 of C=CC(=O)N1CC2(CCN(c3nc4c(c(-c5c(C)ccc6[nH]ncc56)n3)CCCC4)C2)C1
5.42

Next, consider the following molecule.
Form field: reported pIC50 of C=CC(=O)N1CC2(CCN(c3nc4c(c(-c5c(C)ccc6[nH]ncc56)c3C#N)COC(C)(C)C4)C2)C1
7.19
